- Target system: T1, AIPP3-BAH domain Y149A (Arabidopsis, UniProt Q8RXT5 112-279, Y149A)
- T1 sequence: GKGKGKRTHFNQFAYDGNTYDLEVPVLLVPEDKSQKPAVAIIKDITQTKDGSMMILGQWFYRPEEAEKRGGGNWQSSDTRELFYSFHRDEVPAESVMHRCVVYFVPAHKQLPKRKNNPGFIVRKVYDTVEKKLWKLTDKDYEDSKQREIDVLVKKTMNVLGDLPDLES
- Procedure details: ITC
Where no end group is shown, it is not given here. Me3 = trimethyl-lysine
Measured quantity: pKd
Field pKd (float): negative decimal logarithm of the concentration in molar.

### Prompt Please give the measured pKd for this binder: LATKAARK(Me3)SAPATGGVKK [H3K27me3 peptide]
### Response 4.70
